Consider the following molecules; for each one, report its IC50.
- Assay system: Alpha-1A adrenergic receptor (Bos taurus, UniProt P18130)
- Sequence (P18130 whole entry): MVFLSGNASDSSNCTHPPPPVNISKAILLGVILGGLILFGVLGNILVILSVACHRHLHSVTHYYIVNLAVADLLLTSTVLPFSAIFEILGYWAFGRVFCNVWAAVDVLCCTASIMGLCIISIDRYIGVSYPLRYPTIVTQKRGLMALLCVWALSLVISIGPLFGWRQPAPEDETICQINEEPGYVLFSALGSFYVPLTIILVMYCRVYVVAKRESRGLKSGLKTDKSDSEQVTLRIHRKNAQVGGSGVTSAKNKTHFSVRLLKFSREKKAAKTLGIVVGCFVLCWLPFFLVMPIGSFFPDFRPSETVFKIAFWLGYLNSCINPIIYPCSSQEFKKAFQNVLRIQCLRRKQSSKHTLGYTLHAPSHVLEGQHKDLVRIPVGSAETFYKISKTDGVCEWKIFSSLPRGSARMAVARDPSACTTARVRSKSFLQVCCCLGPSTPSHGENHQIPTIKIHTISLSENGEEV
- Assay text: Compound was evaluated for binding affinity at bovine brain Alpha-1 adrenergic receptor in a filtration-based assay using [3H]prazosin as the radioligand
Report only the number, with the unit µM understood.

Ask: // query IC50 value for entry `CS(=O)(=O)Nc1ccc2c(c1)C(=O)CC1(CCN(CCc3ccc(C#N)cc3)CC1)O2.Cl`
Result: 1

Ask: And for `CS(=O)(=O)Nc1ccc2c(c1)C(=O)CC1(CCN(CCc3ccccn3)CC1)O2.Cl.O` ?
Result: 0.5

Ask: And for `CS(=O)(=O)Nc1ccc(CCN2CCC3(CC2)CC(=O)c2cc(NS(C)(=O)=O)ccc2O3)cc1.Cl` ?
Result: 15

Ask: And for `CS(=O)(=O)Nc1ccc2c(c1)CCC1(CCN(CCc3ccc4nonc4c3)CC1)O2.Cl` ?
Result: 3

Ask: And for `CS(=O)(=O)Nc1ccc2c(c1)C(=O)CC1(CCN(CCc3ccccc3)CC1)O2.Cl` ?
Result: 0.1

Ask: And for CS(=O)(=O)Nc1ccc2c(c1)C(O)CC1(CCN(CCc3ccc4nonc4c3)CC1)O2.Cl (stereo unspecified) ?
Result: 2.3

Reference for the values: ChEMBL document CHEMBL1125329
